experiment: self-splicing fitness, log relative to wild type (ln ratio); higher = more splicing; Tetrahymena group I intron in knt gene, E. coli kanamycin selection, DiMSum; sequences stand for … in CUCUCU…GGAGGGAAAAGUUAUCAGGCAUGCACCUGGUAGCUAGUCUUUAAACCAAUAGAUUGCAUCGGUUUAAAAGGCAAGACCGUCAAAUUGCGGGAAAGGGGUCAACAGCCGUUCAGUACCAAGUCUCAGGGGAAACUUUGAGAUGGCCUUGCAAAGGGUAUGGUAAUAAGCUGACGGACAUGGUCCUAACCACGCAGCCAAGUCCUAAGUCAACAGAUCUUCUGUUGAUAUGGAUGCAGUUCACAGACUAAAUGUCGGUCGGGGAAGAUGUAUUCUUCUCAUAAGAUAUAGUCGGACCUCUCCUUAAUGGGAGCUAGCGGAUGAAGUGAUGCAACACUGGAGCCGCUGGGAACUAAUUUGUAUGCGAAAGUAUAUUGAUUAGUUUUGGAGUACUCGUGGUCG; details: 37 °C;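 further: selection with 25 µg/mL kanamycin versus none on LB agar overnight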
Reported values of self-splicing fitness (ln) for individual entries
attribute measured: self-splicing fitness (ln)

>>> df
                sequence  test_result
 0  CAGAAGCAAUAUUACGAUUG        -1.47
 1  GUUCAGCAAUAUUACGUACA        -0.94
 2  ACCAAGCAAUAUUACGUCGA        -1.83
 3  CCUUAGCAAUAUUACGCGAC        -2.12
 4  AAAGAGCAAUAUUACGCGCA         -1.5
 5  UAACAGCAAUAUUACGGCAG       -0.814
 6  GGGGAGCAAUAUUACGACAG        -2.33
 7  ACCAAGCAAUAUUACGCACU        0.498
 8  ACAUAGCAAUAUUACGGAAU        -2.44
 9  ACCGAGCAAUAUUACGGUGG        -3.14
10  GAGUAGCAAUAUUACGGCCC       0.0966
11  AGUAAGCAAUAUUACGGUUA       -0.477
12  UUAUAGCAAUAUUACGUACA      -0.0284
13  UUACAGCAAUAUUACGAUGG      -0.0316
14  AACGAGCAAUAUUACGUUUC        -2.42
15  UAGAAGCAAUAUUACGCGGA       -0.655

###

test: self-splicing fitness, log relative to wild type (ln ratio); higher = more splicing; Tetrahymena group I intron in knt gene, E. coli kanamycin selection, DiMSum; sequences stand for … in CUCUCU…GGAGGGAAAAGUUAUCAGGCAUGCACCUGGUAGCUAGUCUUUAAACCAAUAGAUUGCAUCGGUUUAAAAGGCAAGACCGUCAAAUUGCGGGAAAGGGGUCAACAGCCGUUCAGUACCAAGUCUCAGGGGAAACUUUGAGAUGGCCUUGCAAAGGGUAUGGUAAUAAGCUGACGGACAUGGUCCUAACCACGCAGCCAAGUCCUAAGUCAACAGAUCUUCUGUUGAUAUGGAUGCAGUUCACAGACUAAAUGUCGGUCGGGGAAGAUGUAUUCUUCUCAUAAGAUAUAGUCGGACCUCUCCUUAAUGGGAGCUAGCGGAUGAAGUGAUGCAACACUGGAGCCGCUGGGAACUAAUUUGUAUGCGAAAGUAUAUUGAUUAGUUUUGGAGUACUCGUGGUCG; conditions: 37 °C
Returns one of 1 (yes) or 0 (no); 1 (yes) when self-splicing fitness (ln) is >= -2.

In [3]: df
Out[3]:
               sequence    class
0  UAAAAGCAAUAUUACGUGGA  1 (yes)
1  CCAAAGCAAUAUUACGUGGC   0 (no)
2  GUAAAGCAAUAUUACGUUCU  1 (yes)
3  ACUGAGCAAUAUUACGACAC   0 (no)
4  UUGAAGCAAUAUUACGUGUC   0 (no)
5  CUUAAGCAAUAUUACGUCAC   0 (no)
6  UUACAGCAAUAUUACGGUUG  1 (yes)
7  CGACAGCAAUAUUACGACCC  1 (yes)
